method: SAD phase pharmacokinetics
Type: in vivo, human
run_parameters: human, plasma, oral, 30 mg, AUClast, Median, SAD 30 mg

| molecular_string | measurement_units | AUC(0-t) |
| --- | --- | --- |
| Fc1ccccc1Cc1nc(-c2nc(C(F)(F)F)n[nH]2)cn2ccnc12 | µg·h/mL | 273 |

====

method: MAD phase pharmacokinetics
Assay type: in vivo, human
run_parameters: human, plasma, oral, 15 mg, AUC τ, GeoMean, MAD 15 mg q.d., day 1
endpoint_label: AUC (ng·h/mL)

| molecule | endpoint_label | measurement_units | reported_result |
| --- | --- | --- | --- |
| Fc1ccccc1Cc1nc(-c2nc(C(F)(F)F)n[nH]2)cn2ccnc12 [zagociguat] | AUC | ng·h/mL | 31300 |

====

method: MAD phase pharmacokinetics
Format: in vivo, human
run_parameters: human, plasma, oral, 5 mg, C trough, Median, MAD 5 mg q.d., day 13
endpoint_label: concentration at 13 day (ng/mL)

| compound | measurement_units | reported_result |
| --- | --- | --- |
| Fc1ccccc1Cc1nc(-c2nc(C(F)(F)F)n[nH]2)cn2ccnc12 [zagociguat] | ng/mL | 1580 |

====

method: MAD phase pharmacokinetics
Assay type: in vivo, human
run_parameters: human, plasma, oral, 2 mg, C trough, Median, MAD 2 mg q.d., day 12
endpoint_label: concentration at 12 day (µg/mL)

| compound | reported_result |
| --- | --- |
| Fc1ccccc1Cc1nc(-c2nc(C(F)(F)F)n[nH]2)cn2ccnc12 [zagociguat] | 0.584 |

====

method: MAD phase pharmacokinetics
Format: in vivo, human
run_parameters: human, plasma, oral, 5 mg, C trough, Median, MAD 5 mg q.d., day 12

| molecular_string | measurement_units | concentration at 12 day |
| --- | --- | --- |
| Fc1ccccc1Cc1nc(-c2nc(C(F)(F)F)n[nH]2)cn2ccnc12 | ng/mL | 1580 |

====

method: MAD phase pharmacokinetics
Format: in vivo, human
run_parameters: human, plasma, oral, 2 mg, C max, Median, MAD 2 mg q.d., day 14

| molecular_string | Cmax [ng/mL] |
| --- | --- |
| Fc1ccccc1Cc1nc(-c2nc(C(F)(F)F)n[nH]2)cn2ccnc12 | 888 |

====

method: SAD phase pharmacokinetics
Type: in vivo, human
run_parameters: both, human, plasma, oral, 10 mg, AUCinf, Median, SAD 10 mg
endpoint_label: AUC(0-inf) (ng·h/mL)

| molecular_string | measurement_units | reported_result |
| --- | --- | --- |
| Fc1ccccc1Cc1nc(-c2nc(C(F)(F)F)n[nH]2)cn2ccnc12 | ng·h/mL | 95000 |

====

method: MAD phase pharmacokinetics
Format: in vivo, human
run_parameters: human, plasma, oral, 10 mg, C trough, GeoMean, MAD 10 mg q.d., day 13
endpoint_label: concentration at 13 day (ng/mL)

| molecule | reported_result |
| --- | --- |
| Fc1ccccc1Cc1nc(-c2nc(C(F)(F)F)n[nH]2)cn2ccnc12 [zagociguat] | 2840 |

====

method: MAD phase pharmacokinetics
Assay type: in vivo, human
run_parameters: human, plasma, oral, 10 mg, AUC τ, GeoMean, MAD 10 mg q.d., day 1
endpoint_label: AUC

| compound | endpoint_label | reported_result |
| --- | --- | --- |
| Fc1ccccc1Cc1nc(-c2nc(C(F)(F)F)n[nH]2)cn2ccnc12 [zagociguat] | AUC | 20100 ng·h/mL |
